experiment-notes: E. coli acrAB mutant growth effects, primary screen, E. coli filamentation inducers, strain DRC39, OD650, 24 h (AID 1178);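 also: growth measured as culture turbidity by optical density at 650 nm; test concentration not given here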
test-settings: higher = more signal, called active from +8 up or from −8 down
Collected z-score values appear next to each entry.

{"molecule": "C=CC[C@]1(C(=O)NCC(O)CO)N=C(c2ccc(OCCCO)cc2)O[C@H]1c1ccccc1 (stereo partly specified)", "z-score": 1.44}
{"molecule": "CN1C(=O)C2C=CC(C(O)c3ccc(N(C)C)cc3)N(Nc3ccc([N+](=O)[O-])cc3[N+](=O)[O-])C2C1=O (stereo unspecified)", "z-score": -0.243}
{"molecule": "NC(=O)[C@H]1[C@@H]2C(=O)O[C@@H](c3ccccc3)[C@@H](c3ccccc3)N2[C@@H](c2ccc(O)cc2)[C@]12C(=O)Nc1ccc(C#CCCO)cc12", "z-score": -0.847}
{"molecule": "CO[C@H]1COC(=O)[C@H](C)COC(=O)[C@H](Cc2ccccc2)NC(=O)CC=C[C@H]1C", "z-score": 0.192}
{"molecule": "C[C@@H]1CC[C@H]2C(=O)N3[C@@H](CC[C@@H](C)[C@@H]3c3cccc(N4CCOCC4)c3)C(=O)N2[C@H]1c1cccc(N2CCOCC2)c1", "z-score": 0.203}
{"molecule": "CN(C)CCCC[C@@H]1NC(=O)[C@@H]2C[C@H](C(=O)O)[C@H](c3ccc(O)cc3)N2C1=O", "z-score": 0.994}
{"molecule": "C=CCC(OC(C)=O)[C@@H]1[C@@H](N(Cc2ccc(-c3ccccc3)cc2)C(=O)c2ccc(C)cc2)c2cc(OCCCO)ccc2N1C(=O)c1ccc(-c2ccccc2)cc1 (stereo partly specified)", "z-score": 2.05}
{"molecule": "O=C1C2C=CC(C(O)c3ccccc3)N(n3cnnc3)C2C(=O)N1Cc1ccccc1 (stereo unspecified)", "z-score": -0.456}
{"molecule": "Cc1ccc(S(=O)(=O)N[C@H]2COC(=O)CC=C[C@H](C)COC(=O)N[C@@H](C)C(=O)CC=C[C@@H]2C)cc1", "z-score": 0.583}
{"molecule": "CC(C)[Si](OCC[C@H]1O[C@]2(C(=O)N(Cc3ccccc3)c3ccccc32)[C@@H](C)[C@@H]1[Si](C)(C)O)(C(C)C)C(C)C", "z-score": -0.297}
{"molecule": "CN(C)c1ccc(C(O)C2C=CC3C(=O)NC(=O)C3N2Nc2ccc(Cl)cc2Cl)cc1 (stereo unspecified)", "z-score": 0.221}
{"molecule": "O=C1c2ccccc2[C@@]2(Cc3ccccc3N(CC(F)(F)F)C2=O)[C@H](c2ccc(CO)cc2)N1C1CCCCC1", "z-score": 0.172}
{"molecule": "C=CC[C@]1(C(=O)N2CCCCC2)N=C(c2ccc(OCCCO)cc2)O[C@H]1c1ccccc1N=[N+]=[N-]", "z-score": 0.16}
{"molecule": "Cc1ccc(S[C@]2(C(=O)O)CC(=O)N(Cc3ccccc3)[C@@H]2c2ccc(CO)cc2)cc1", "z-score": 0.537}
{"molecule": "CC(C)[Si]1(C(C)C)OCc2cc(C3CC3)nc(-c3ccccc3)c21", "z-score": 1.39}
{"molecule": "COc1ccc(-c2ccccc2[C@@H]2N[C@H](C(=O)O)CC[C@H]2C)cc1", "z-score": -0.892}
